- condition: in acetone, 293.15 K
measuredProperty: solubility (mole fraction)

>  <smilesRecord>
O=C(O)c1cccnc1Nc1cccc(C(F)(F)F)c1

>  <measuredProperty>
solubility (mole fraction)

>  <experimentalResult>
0.0296

$$$$

----------
- condition: in methanol, 308.15 K
measuredProperty: solubility (mole fraction)

>  <smilesRecord>
O=C(O)c1cccnc1Nc1cccc(C(F)(F)F)c1

>  <experimentalResult>
0.0107

$$$$

----------
- condition: in ethanol, 298.15 K

>  <smilesRecord>
O=C(O)c1cccnc1Nc1cccc(C(F)(F)F)c1

>  <solubility (mole fraction)>
0.00935

$$$$

----------
- condition: in n-propanol, 298.15 K
measuredProperty: solubility (mole fraction)

>  <smilesRecord>
O=C(O)c1cccnc1Nc1cccc(C(F)(F)F)c1

>  <experimentalResult>
0.011

$$$$
